target: KDM1A (LSD1) (Homo sapiens, UniProt O60341)
PROPERTY MEASURED: IC50

[[record]]
compound = "Cc1c(O)c(=O)ccn1C [DFP, Deferiprone]"
target_system = "KDM1A (LSD1) (Homo sapiens, UniProt O60341)"
test_result = "> 25 µM"


All values here come from paper PMC6423038.
